target-of-assay: FAP-expressing human WI-38 fibroblasts (Homo sapiens)
Construct: FAP-expressing human WI-38 fibroblasts (ECACC) were cultured in EMEM; host or cells: WI-38 human fibroblasts
Sequence (Q12884 whole entry): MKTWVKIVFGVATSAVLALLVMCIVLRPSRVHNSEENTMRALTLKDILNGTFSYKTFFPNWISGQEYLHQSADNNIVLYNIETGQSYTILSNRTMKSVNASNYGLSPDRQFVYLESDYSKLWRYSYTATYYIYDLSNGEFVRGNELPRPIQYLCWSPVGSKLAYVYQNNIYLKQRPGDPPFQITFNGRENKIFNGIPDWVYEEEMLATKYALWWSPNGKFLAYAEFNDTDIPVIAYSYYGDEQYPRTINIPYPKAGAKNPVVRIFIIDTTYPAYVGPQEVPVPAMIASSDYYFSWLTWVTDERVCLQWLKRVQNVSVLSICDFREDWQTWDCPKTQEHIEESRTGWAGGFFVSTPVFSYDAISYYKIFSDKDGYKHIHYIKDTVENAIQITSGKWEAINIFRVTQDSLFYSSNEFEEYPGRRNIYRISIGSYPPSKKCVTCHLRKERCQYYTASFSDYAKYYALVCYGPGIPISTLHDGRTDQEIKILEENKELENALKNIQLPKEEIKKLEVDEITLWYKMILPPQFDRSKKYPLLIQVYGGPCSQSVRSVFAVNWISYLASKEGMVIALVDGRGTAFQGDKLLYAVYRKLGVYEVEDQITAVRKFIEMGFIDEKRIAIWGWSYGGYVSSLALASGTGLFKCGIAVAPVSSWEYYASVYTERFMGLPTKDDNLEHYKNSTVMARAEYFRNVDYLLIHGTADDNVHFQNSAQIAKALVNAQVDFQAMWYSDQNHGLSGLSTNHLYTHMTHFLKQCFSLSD
assay-method-text: Competitive FACS binding assay
study-conditions: pIC50 Category (FACS), competition with 3 nM Cy5-labeled compound, 4° C., 1 hour
pIC50: −log10 of the molar value.
pIC50 values for the compounds below.

[
  {
    "chem-smiles": "CCCCCC(=O)N[C@H]1CSCc2cc(CSCCNC(=O)CN3CCN(CC(=O)O)CCN(CC(=O)O)Cc4cccc(n4)C3)cc(c2)CSC[C@@H](C(=O)O)NC(=O)[C@H](Cc2ccccc2)NC(=O)[C@H](CCC(N)=O)NC(=O)[C@H]([C@@H](C)O)NC(=O)[C@@H]2CCCN2C(=O)[C@@H]2CCCN2C1=O",
    "pIC50": "> 8.00"
  },
  {
    "chem-smiles": "CCCCCC(=O)N[C@H]1CSCc2cc(cc(CN3CCN(C(=O)CN4CCN5CCN6CCN(CC4)CC(=O)[O][In]([O]C(=O)C6)[O]C(=O)C5)CC3)c2)CSC[C@@H](C(=O)O)NC(=O)[C@H](Cc2ccccc2)NC(=O)[C@H](CCC(N)=O)NC(=O)[C@H]([C@@H](C)O)NC(=O)[C@@H]2CCCN2C(=O)[C@@H]2CCCN2C1=O",
    "pIC50": "> 8.00"
  }
]

Tell me its pIC50 given CCCCCC(=O)N[C@H]1CSCc2cc(cc(CN3CCN(C(=O)C(CNCCN)CNCCN)CC3)c2)CSC[C@@H](C(=O)O)NC(=O)[C@H](Cc2ccccc2)NC(=O)[C@H](CCC(N)=O)NC(=O)[C@H]([C@@H](C)O)NC(=O)[C@@H]2CCCN2C(=O)[C@@H]2CCCN2C1=O as the entry.
> 8.00

---

Catalogue of molecules with associated pIC50
target-of-assay: Human recombinant FAP (Homo sapiens, UniProt Q12884)
assay-method-text: FRET-based FAP protease activity assay
Assay type: biochemical
Parameters: purchased R&D systems 3715-SE
study-conditions: pIC50 Category (Activity), FRET substrate, 37° C.
pIC50: −log10 of the molar value. Numbered stars: 1 amine (or outer) side, 2 acyl side, 3 side chain; on linkers, the order of the positions; unused ones are H or OH. Bridge positions count the residues as written; N and C are the ends. Square brackets hold non-standard residues; d marks the D form. Peptide text beside a SMILES is read from it. * marks the point of attachment. TBMB(SCH2CH2NH-DOTA) = O=C(O)CN1CCN(CC(=O)O)CCN(CC(=O)NCCSCc2cc(C[*:1])cc(C[*:2])c2)CCN(CC(=O)O)CC1; X42 = NCCNCC(CNCCN)C(=O)N[C@@H](CCC(=O)NCCCOCCOCCOCCCN*)C(=O)O; Phe(2-CF3) = N[C@@H](Cc1ccccc1C(F)(F)F)C(=O)O; mXylylene = c1cc(C[*:1])cc(C[*:2])c1; X41 = NCCCCCC(=O)NCCCOCCOCCOCCCN*; Suc = O=C(CCC(=O)[*:2])[*:1]; Nle = CCCC[C@H](N)C(=O)O; Hexanoyl = CCCCCC(=O)*; Sar = CNCC(=O)O

Before answering, review these 4 worked examples.
[
  {
    "molecule": "CCCC[C@H](NC(=O)CCC(=O)NCCCOCCOCCOCCCNC(=O)CCCCCN)C(=O)N[C@H]1CSCc2cccc(c2)CSC[C@@H](C(=O)N[C@@H](CC(=O)O)C(N)=O)NC(=O)[C@H](Cc2ccccc2)NC(=O)[C@H](CCC(N)=O)NC(=O)[C@H]([C@@H](C)O)NC(=O)[C@@H]2CCCN2C(=O)[C@@H]2CCCN2C1=O [3BP-3980] ({X41-Suc}-[Nle]CPPTQFCD-NH2; linker 2-8 via mXylylene)",
    "pIC50": "> 8.00"
  },
  {
    "molecule": "CCCCCC(=O)N[C@H]1CSCc2cc(CSCCNC(=O)CCC(=O)NCCCOCCOCCOCCCNC(=O)CN3CCN(CC(=O)O)CCN(CC(=O)O)CC3)cc(c2)CSC[C@@H](C(=O)O)NC(=O)[C@H](Cc2ccccc2)NC(=O)[C@H](CCC(N)=O)NC(=O)[C@H]([C@@H](C)O)NC(=O)[C@@H]2CCCN2C(=O)[C@@H]2CCCN2C1=O",
    "pIC50": "> 8.00"
  },
  {
    "molecule": "CCCC[C@H](NC(=O)CCC(=O)NCCCOCCOCCOCCCNC(=O)CC[C@H](NC(=O)C(CNCCN)CNCCN)C(=O)O)C(=O)N[C@H]1CSCc2cccc(c2)CSC[C@@H](C(=O)O)NC(=O)[C@H](Cc2ccccc2)NC(=O)[C@H](CCC(=O)O)NC(=O)[C@H]([C@@H](C)O)NC(=O)[C@@H]2CCCN2C(=O)[C@@H]2CCCN2C1=O [3BP-4245] ({X42-Suc}-[Nle]CPPTEFC-OH; linker 2-8 via mXylylene)",
    "pIC50": "7.10 to 8.00"
  },
  {
    "molecule": "CCCCCC(=O)N[C@H]1CSCc2cc(CSCCNC(=O)CN3CCN4CCN5CCN(CC3)CC(=O)[O][In]([O]C(=O)C4)[O]C(=O)C5)cc(c2)CSC[C@@H](C(=O)N(C)CC(=O)O)NC(=O)[C@H](Cc2ccccc2)NC(=O)[C@H](CCC(N)=O)NC(=O)[C@H]([C@@H](C)O)NC(=O)[C@@H]2CCCN2C(=O)[C@@H]2CCCN2C1=O",
    "pIC50": "> 8.00"
  }
]

Give reported pIC50 value for CCCCCC(=O)N[C@H]1CSCc2cc(CSCCNC(=O)CN3CCN(CC(=O)O)CCN(CC(=O)O)CCN(CC(=O)O)CC3)cc(c2)CSC[C@@H](C(=O)O)NC(=O)[C@H](Cc2ccccc2C(F)(F)F)NC(=O)[C@H](CCC(N)=O)NC(=O)[C@H]([C@@H](C)O)NC(=O)[C@@H]2CCCN2C(=O)CN(C)C1=O [3BP-3680] (Hexanoyl-C[Sar]PTQ[Phe(2-CF3)]C-OH; linker 1-7 via TBMB(SCH2CH2NH-DOTA))
> 8.00
